- tested system: Prostaglandin F2-alpha receptor (Mus musculus) (UniProt P43117)
- Sequence (P43117 whole entry): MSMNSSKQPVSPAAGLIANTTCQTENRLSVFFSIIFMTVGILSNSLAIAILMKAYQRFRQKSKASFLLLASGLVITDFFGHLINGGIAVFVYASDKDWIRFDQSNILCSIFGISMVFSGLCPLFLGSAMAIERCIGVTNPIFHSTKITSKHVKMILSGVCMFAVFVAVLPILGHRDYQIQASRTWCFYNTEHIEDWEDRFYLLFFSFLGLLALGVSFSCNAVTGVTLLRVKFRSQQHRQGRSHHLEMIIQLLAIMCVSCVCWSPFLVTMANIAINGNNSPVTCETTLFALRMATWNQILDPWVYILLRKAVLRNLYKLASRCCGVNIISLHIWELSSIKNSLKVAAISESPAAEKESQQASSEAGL
- assay summary: Antagonist activity at prostaglandin F2-alpha receptor in isolated Albino mouse ileum assessed as inhibition of KCl-induced spasmogenic effect at
- Assay type: tissue-based
The source made the active and inactive calls. No cut-off for these calls is given here.
Outcomes: active, inactive

compound | label class
CCCC1(CCC(=O)O)Cc2cc(OCc3ccccc3)c(OCc3ccccc3)cc2C1=O (centres undefined) | active
CCCC1(CCC(=O)O)Cc2cc3c(cc2C1=O)OCO3 (centres undefined) | inactive
CCCC1(CCC(=O)O)Cc2ccc(OC)cc2C1=O (centres undefined) | inactive
CCCC1(CCC(=O)O)Cc2cc3c(cc2C1)OCO3 | inactive

---

- tested system: Prostaglandin F2-alpha receptor (Mus musculus) (UniProt P43117)
- assay summary: Antagonist activity at prostaglandin F2-alpha receptor in isolated Albino mouse ileum assessed as inhibition of acetylcholine-induced spasmogenic effect at 10^-4 M preincubated for 3 mins followed by acetylcholine challenge relative to control
- Type: tissue-based
Active and inactive are the calls of the source. The calls are words filed in the database; no cut-off is given here.

compound | inhibition
CCCC1(CCC(=O)O)Cc2ccc(OC)cc2C1=O (centres undefined) | inactive
CCCC1(CCC(=O)O)Cc2cc(OCc3ccccc3)c(OCc3ccccc3)cc2C1=O (centres undefined) | 70%
CCCC1(CCC(=O)O)Cc2cc3c(cc2C1=O)OCO3 (centres undefined) | inactive
CCCC1(CCC(=O)O)Cc2cc3c(cc2C1)OCO3 | inactive

---

- tested system: Prostaglandin F2-alpha receptor (Mus musculus) (UniProt P43117)
- assay summary: Antagonist activity at prostaglandin F2-alpha receptor in isolated Albino mouse ileum assessed as inhibition of KCl-induced spasmogenic effect at 10^-4 M preincubated for 3 mins followed by KCl challenge relative to control
- Type: tissue-based
Active and inactive are the calls of the source. The rule behind the calls is not given here.

compound | tested system | inhibition
CCCC1(CCC(=O)O)Cc2cc(OCc3ccccc3)c(OCc3ccccc3)cc2C1=O (centres undefined) | Prostaglandin F2-alpha receptor (Mus musculus) (UniProt P43117) | 70%
CCCC1(CCC(=O)O)Cc2ccc(OC)cc2C1=O (centres undefined) | Prostaglandin F2-alpha receptor (Mus musculus) (UniProt P43117) | inactive
CCCC1(CCC(=O)O)Cc2cc3c(cc2C1=O)OCO3 (centres undefined) | Prostaglandin F2-alpha receptor (Mus musculus) (UniProt P43117) | inactive
CCCC1(CCC(=O)O)Cc2cc3c(cc2C1)OCO3 | Prostaglandin F2-alpha receptor (Mus musculus) (UniProt P43117) | inactive

---

- tested system: Prostaglandin F2-alpha receptor (Mus musculus) (UniProt P43117)
- assay summary: Antagonist activity at prostaglandin F2-alpha receptor in isolated Albino mouse ileum assessed as inhibition of acetylcholine-induced spasmogenic effect at
- Format: tissue-based
Active and inactive are the calls of the source. No cut-off for these calls is given here.
Possible outcomes: active, inactive

molecule | label class
CCCC1(CCC(=O)O)Cc2ccc(OC)cc2C1=O (centres undefined) | inactive
CCCC1(CCC(=O)O)Cc2cc(OCc3ccccc3)c(OCc3ccccc3)cc2C1=O (centres undefined) | active
CCCC1(CCC(=O)O)Cc2cc3c(cc2C1)OCO3 | inactive
CCCC1(CCC(=O)O)Cc2cc3c(cc2C1=O)OCO3 (centres undefined) | inactive

---

- tested system: Prostaglandin F2-alpha receptor (Mus musculus) (UniProt P43117)
- assay summary: Antagonist activity at prostaglandin F2-alpha receptor in isolated Albino mouse ileum assessed as inhibition of PGF2alpha-induced spasmogenic effect at 10^-4 M preincubated for 3 mins followed by PGF2alpha challenge relative to control
- Type: tissue-based

compound | inhibition
CCCC1(CCC(=O)O)Cc2cc3c(cc2C1=O)OCO3 (centres undefined) | 20%
CCCC1(CCC(=O)O)Cc2cc3c(cc2C1)OCO3 | 20%
CCCC1(CCC(=O)O)Cc2ccc(OC)cc2C1=O (centres undefined) | 20%
